# Method notes: label from the status in PepcDB records;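 note: failed if final PepcDB status was selected cloned or expressed and not failed if soluble or beyond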
Reported endpoint: protein production

• MATLYDAPVDELIDELAADLETRLDEPDWANYAKTGAGRELPPEQSDFWATRAASLLRKVAIDGPIGVKRLSEAYGSTTSGSNRYVVAPSTTTAGSRNIVRTILQQLEAEGLVEQQHDHGRVVTGDGRSLLDETAGDVIESLDRPELERYA = failed
• MLKELFVNLTILITFNYLFTHLFKERLVHKKDSISFQAVKGLACGLLGVILMVFGFTYQHSIIDLRNIPIMIAALYGGWVSTATALAMITAGRLLITMNTSALYSVIIICIAAIPSLIVSRRKKVQLKHAFYLLIITNSLISFSFYFLIDLHSYELHLYFWIISIAGGMLSLYIIDHETNAHLLFKQYKFQAHFDFLTGVYNRRKFEETTKALYQQAADTPHFQFALIYMDIDHFKTINDQYGHHEGDQVLKELGLRLKQTIRNTDPAARIGGEEFAVLLPNCSLDKAARIAERIRSTVSDAPIVLTNGDELSVTISLGAAHYPNNTEQPGSLPILADQMLYKAKETGRNRVCFSEKKE = failed
• MTGQTQGKAVIARERISFWGGFDPQTGRIVDPYSSLRGRDISDCVLILLSSKGSSGTSGMLSLATRAGHAPAAMIQVEMDPVTVMGCLVNNIPLLQASGFDPFEQIQDGDLVRIDGENGTITLTPGQALEHHHHHH = failed

* * *

# Method notes: label from the status in PepcDB records
Reported endpoint: protein production

Known protein production results, listed for orientation:
• MTAKAACSDFLHFFRSWVSNPLRVAAIAPSGDSLARIMTSEIAALDGPIIELGPGTGVFTRALLARGVSEADLTLIEYGPEFITSLQARFPTARVLQMDAAHLAHADIFEGEPVGAVVSGLPLLSMSPRKIASILAGAFAYMRPGGAVYQFTYGPRCPVPRPILDRLGLKAVRIGGTVRNLPPASVYRISRRKPLELSRERFSYRSSAADVDDVAAFSNETGG = failed
• MGSSHHHHHHSSGRENLYFQGEPPPSVRREFPLKVRLSTGKDVRLSASLPDTVGQLKRQLHAQEGIEPSWQRWFFSGKLLTDRTRLQETKIQKDFVIQVIIN = not failed
• MTARNILSYSYEEYVEKITAFHGYPAPGVLIGGFMVDLAVKNLPEGILYDAICETRTCLPDAVQLLTPCTFGNGWLTVLPMGLFAVSLYDKFTGEGVRVFLDVEKMGPWQEIRNWFLKLKTKKEQDSERLFKEIREAGPDILELRNVKLKPGFLEKKHKGKIVLCPQCREAYPAQDGELCLSCQGGSPYL = not failed
• NDALRVMAGDLQRSEEKFRSMTDAAHDAVFMLNNEGKIVYRNTAAETLFGFSREEYGDQLFWELISPEFADFNIHDVCEMMPDEALPDFNSETRVRQIEGLRKDGSLVPIEISRGCVHIESVHHTVVIARDIT = failed

Let us move to another entry and its protein production.
Query: protein production; subject: `FGNQKIFVCDARADWTNEFRTCSMFKNVHINRWYVITPSRNLRETQEFVQMCIRTASSMKMNICNPIYEEIPDDRNGTYSQAIDNAAANDPQIVMVVMRS`
Response: failed

* * *

# Method notes: label from the status in PepcDB records
Reported endpoint: protein production

Example results:
• MDKASRFDRMVKEKKNDELGLFEKYEETLAEIRKRIIKYKAKTVVDMGCGTGNLCGELSKEIEALGIDKSLEMLEGAKRKYKHIKFKIGSFSDKPFIGKWAGVVVTTYAFHGLNSEEKKEAIKNMIGYLKDDGRIIIGDYMFKNKAEKEECRNKLLSKKRQDLWEVIDGRYYTDLEELKDYVKSLGFKIISEHIVNFTWIVEIYK = failed
• VARCQVPDCEADISELKGYHKRHRVCLRCATASFVVLDGENKRYCQQCGKFHLLPDFDEGKRSCRRKLERHNNRRKRKPVDKGGVA = not failed
• MTAAIRRTVTFPGVSMARLKSMLGAYNGHLKQIEQRLDVQITHRGDAFYIDGDIDAVERAESLLQRLYNESETSDQISADILHLMIQGSQTDRELMDDSEQEHTGLDNVWLQTPKGRINPRGTNQKRYVQRILQSDISFGIGPAGTGKTYLAVAAAVDMLERNEIQRILLVRPAVEAGEKLGFLPGDLAQKIDPYLRPLYDALYEMLGFEKVAKLIERQVIEVAPLAYMRGRTLNHSFVILDEAQNTTPEQMKMFLTRLGFGSRAVITGDITQVDLPRGQQSGLAHALRVLEPIKEIHITRFHSRDVVRHQLVQKIVEAYEGWDSEQNRLSAEARAERKARQEALMSEHDAAADAQHQEA = failed
• MNMLIDISTEILMSLLFFYLFYRIMVKGTNGVIEILVEAMMFSMFVGLILYFQTRITFTTASMAVDMPMAIMGGAVAWAYFTRNSSMTTSRKSAFISLLISNEVAMAYFLTIITYPNIISHGVFYTLVHSVSSYLFIASMEIEMILSLLFLEKDSIKKIVFSGVVFSGLFNPFFMPQSNFSLYGTIYFTAVMVFFMAILFEIIAVKFDTMNFGKIVMITLFFGLMGFSAAGLFASIVFGSLITLLLFDISMMAQMAFYFYFLFRNTEIRGRPGWSYNRYSMFYVLLFSFAAEWLASASIISVVNGVNGVVPFLSNFGVGVYSGIVPAILNAIFIFGSVTNSYVFLIIMGVEMASLVIVRIGRLRWKEKNGISHSP = failed

Query: I am curious: what protein production value has been reported for `SGHPPLEFSDCYLDSPDFRERLKCYEQELERTNKFIKDVIKDGNALISAMRNYSSAVQKFSQTLQSFQFDFIGDTLTDDEINIAESFKEFAELLNEVENERMMMVHNASDLLIKPLENFRKEQIGFTKERKKKFEKDGERFYSLLDRHLHLSSKKKESQLQEADLQVDKERHNFFESSLDYVYQIQEVQESKKFNIVEPVLAFLHSLFISNSLTVELTQDFLPYKQQLQLSLQNTRNHFSSTREEMEELKKRMKEAPQTCKLPGQPTIEGYLYTQEKCVWGHRGIHWVSISQELLPLVGCEFWAPLLFIDP` ?
Response: not failed

Query: Requested field: protein production. Item: `MARKCEITGKKTMFGNNVPRKGLAKKKGGAGQHIGVKTKRTFKVNLINKKFFIPNLGRSVSIKVSANALRSISKIGLDAFLKKNCKKIENFLLEHHHHHH`
Response: failed
